tested on: MRC-5 cells; test: Cytotoxicity against human MRC-5 cell line; type: cell-based
Result Type: (d) Cytotox MRC-5 (µM)
Answers are plain numbers, in µM.

Cc1nc2cnc(-c3cccc(C(F)(F)F)c3)cn2c1-c1ccc(O)cc1F : 15.8

Hi team, please reply with (d) Cytotox MRC-5 for each item in this list.
1. COc1ccc(-c2c(C(C)C)nc3cnc(-c4cccc(C(F)(F)F)c4)cn23)cc1O
2. Cc1nc2cnc(-c3ccc(F)c(C(F)(F)F)c3)cn2c1-c1ccc(O)cc1F
3. CC(C)c1nc2cnc(-c3cccc(C(F)(F)F)c3)cn2c1-c1ccc(O)cc1F
4. CCc1nc2cnc(-c3cccc(C(F)(F)F)c3)cn2c1-c1ccc(O)cc1F

Out:
[21.8, 14.4, 13.7, 17.3]

---

For each entry below, report its (e) Cytotox HepG2 value.
test system: HepG2 cell line; assay: Cytotoxicity against human HepG2 cell lines; assay type: cell-based
Answer format: value, then unit.

Use the examples below as a reference point.
Fc1ccc(-c2cn3c(-c4ccc5[nH]ncc5c4F)c(C(F)(F)F)nc3cn2)cc1C(F)(F)C(F)(F)F [Example 63] : 11.7 µM
CC(C)c1nc2cnc(-c3cccc(C(F)(F)F)c3)cn2c1-c1ccc2[nH]ncc2c1F [Example 21] : 15.1 µM
CC(C)Oc1cc(-c2cn3c(-c4ccc5[nH]ncc5c4F)c(C(F)(F)F)nc3cn2)ccc1F [Example 81] : 9.2 µM

Hi team, please reply with (e) Cytotox HepG2 for each item in this list.
1. CC(C)c1cc(-c2cn3c(-c4ccc5[nH]ncc5c4F)c(C(F)(F)F)nc3cn2)ccn1 [Example 87]
2. Cc1nc2cnc(-c3cccc(C(F)(F)F)c3)cn2c1-c1c(F)cc(O)cc1F [Example 15]
3. CC(C)c1nn2cnc(-c3ccc(F)c(C(F)(F)F)c3)cc2c1-c1c(F)cc(O)cc1F [Example 47]
4. CC(C)c1cc(-c2cn3c(-c4ccc5[nH]ncc5c4F)c(C(C)C)nc3cn2)ccc1F [Example 74]

Out:
1. 9.5 µM
2. 8.4 µM
3. 8.9 µM
4. 11.0 µM

Hi team, please reply with (e) Cytotox HepG2 for each item in this list.
1. CC1(c2nc3cnc(-c4ccc(F)c(C(F)(F)F)c4)cn3c2-c2c(F)cc(O)cc2F)CC1 [Example 33]
2. CC(C)c1nc2cnc(-c3ccc(F)c(C(F)(F)F)c3)cn2c1-c1ccc2[nH]ncc2c1F [Example 2]
3. CC(C)c1nn2cnc(-c3ccc(F)c(C(F)(F)C(F)(F)F)c3)cc2c1-c1ccc2[nH]ncc2c1F [Example 58]
4. CCc1nc2cnc(-c3ccc(F)c(C(C)C)c3)cn2c1-c1ccc2[nH]ncc2c1F [Example 75]

Out:
1. 7.9 µM
2. 10.4 µM
3. 10.8 µM
4. 11.3 µM

Hi team, please reply with (e) Cytotox HepG2 for each item in this list.
1. Fc1ccc(-c2cn3c(-c4ccc5[nH]ncc5c4F)c(C4CC4)nc3cn2)cc1C(F)(F)F [Example 32]
2. Fc1c(-c2c(C(F)(F)F)nc3cnc(-c4cccc(C(F)(F)C(F)(F)F)c4)cn23)ccc2[nH]ncc12 [Example 29]
3. Cc1nc2cnc(-c3cccc(C(F)(F)C(F)(F)F)c3)cn2c1-c1c(F)cc(O)cc1F [Example 49]
4. Fc1c(-c2c(C(F)(F)F)nc3cnc(-c4cccc(OC(F)(F)F)c4)cn23)ccc2[nH]ncc12 [Example 72]

Out:
16.1 µM
8.9 µM
9.3 µM
9.7 µM

Per the record, CCc1nn2cnc(-c3ccc(F)c(C(F)(F)F)c3)cc2c1-c1c(F)cc(O)cc1F [Example 48] has (e) Cytotox HepG2 of 9.8 µM
